Entry source: paper PMC6563716

# target-or-system: human 15-lipoxygenase-1 (15-LOX-1) (Homo sapiens)
# Sequence (P16050 2-662): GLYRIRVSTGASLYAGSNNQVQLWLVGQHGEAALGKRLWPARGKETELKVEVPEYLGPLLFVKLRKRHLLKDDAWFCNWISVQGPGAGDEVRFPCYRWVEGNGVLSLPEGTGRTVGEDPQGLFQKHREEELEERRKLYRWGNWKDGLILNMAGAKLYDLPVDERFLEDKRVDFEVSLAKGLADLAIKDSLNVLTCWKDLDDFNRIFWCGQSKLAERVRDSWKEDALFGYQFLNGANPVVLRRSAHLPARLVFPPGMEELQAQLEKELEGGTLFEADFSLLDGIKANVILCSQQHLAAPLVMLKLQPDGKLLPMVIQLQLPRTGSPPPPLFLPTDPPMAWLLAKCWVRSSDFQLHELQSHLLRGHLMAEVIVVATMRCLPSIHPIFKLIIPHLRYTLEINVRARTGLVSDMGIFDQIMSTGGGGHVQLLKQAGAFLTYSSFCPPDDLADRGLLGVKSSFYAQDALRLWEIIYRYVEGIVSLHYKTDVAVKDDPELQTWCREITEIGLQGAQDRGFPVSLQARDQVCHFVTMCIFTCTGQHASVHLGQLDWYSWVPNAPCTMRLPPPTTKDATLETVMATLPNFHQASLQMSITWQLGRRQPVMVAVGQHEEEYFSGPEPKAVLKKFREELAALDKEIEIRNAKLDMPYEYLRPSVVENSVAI
endpoint-name: pIC50
// pIC50 is dimensionless: -log10 of concentration (M)

Example molecules with recorded pIC50:
{"molecule": "CC(C)CCCC(C)CC(=O)NN=Cc1cccnc1 (racemic)", "target-or-system": "human 15-lipoxygenase-1 (15-LOX-1) (Homo sapiens)", "pIC50": 4.80}
{"molecule": "COc1cc(C=NNC(=O)CC(C)CCCC(C)C)ccc1O (racemic)", "target-or-system": "human 15-lipoxygenase-1 (15-LOX-1) (Homo sapiens)", "pIC50": 4.38}

Challenge: Quote pIC50 with test system human 15-lipoxygenase-1 (15-LOX-1) (Homo sapiens) for CC(C)CCCC(C)CC(=O)NN=Cc1cccs1 (racemic)
Response given: 4.23
